These data points were gathered from ChEMBL document CHEMBL3425452.

# TEST DETAILS: Inhibition of Leishmania donovani FPPS
PROPERTY NAME: IC50 (µM)
Reply with just the number (in µM).

Which IC50 is reported for this compound? O=P(O)(O)C(O)(CCc1cccnc1)P(=O)(O)O
5.4
